// data source = the RNAGym collection of RNA variant scans (doi:10.1126/science.aae0568)

B1: tRNA (parent)
chain: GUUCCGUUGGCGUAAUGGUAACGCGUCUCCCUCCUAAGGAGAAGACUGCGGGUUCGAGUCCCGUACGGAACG

variants of: B1; assay: yeast fitness relative to wild type (ratio to wild type); higher = fitter; tRNA-Arg(CCU), competitive growth, 37 C, YPD
Variants at the floor of the assay were thinned out.
Would you mind telling me the reported yeast fitness of each entry?

Memo: A14G A40U C55A G68U , reported yeast fitness: ≤ 0.5

Memo: G48C A57G G63A , reported yeast fitness: ≤ 0.5

Memo: C5A C24G G63A , reported yeast fitness: ≤ 0.5

Memo: G6C U7C C31G , reported yeast fitness: ≤ 0.5

Memo: C22U C30G A57U , reported yeast fitness: ≤ 0.5

Memo: C5G C27U G44C G48C , reported yeast fitness: ≤ 0.5

Memo: U8C C49G A57G , reported yeast fitness: 0.531

Memo: C24U C27G G63A , reported yeast fitness: 0.536

Memo: U3A G9A A14C , reported yeast fitness: 0.551

Memo: U32C A45U G67A , reported yeast fitness: ≤ 0.5

Memo: U3C G9A G48C , reported yeast fitness: 0.784

Memo: A42C U47C U54A G67C A69U , reported yeast fitness: ≤ 0.5

Memo: C22G A40U A43U , reported yeast fitness: 0.503

Memo: C34A G68C , reported yeast fitness: 0.841

Memo: C4G U7G A43C , reported yeast fitness: 0.687

Memo: C4A A36G G44U G51C A65U , reported yeast fitness: ≤ 0.5

Memo: C4U C29A G52C U54C C55A U59G , reported yeast fitness: ≤ 0.5

Memo: G18A C62U U64A , reported yeast fitness: 0.517

Memo: A15U A36C , reported yeast fitness: ≤ 0.5

Memo: G9A C33U A36C A45C G48A C55A , reported yeast fitness: ≤ 0.5

Memo: C11U G12A A14G U53C , reported yeast fitness: ≤ 0.5

Memo: U8C C22U G58C , reported yeast fitness: ≤ 0.5

Memo: G10A A14U A20G U26G C31G C34G A42U A43C G50C A70C , reported yeast fitness: ≤ 0.5

Memo: C4A C33G A57G , reported yeast fitness: 0.576

Memo: U2G C33G C61A , reported yeast fitness: ≤ 0.5

Memo: U16A G23A C33A A65G , reported yeast fitness: ≤ 0.5

Memo: A42G C61U G63C , reported yeast fitness: ≤ 0.5

Memo: C29G G41A U47G , reported yeast fitness: ≤ 0.5

Memo: C24U A36U A43G , reported yeast fitness: 0.509

Memo: U8C C11A C30A , reported yeast fitness: ≤ 0.5

Memo: C4A G18C C49A G52C , reported yeast fitness: ≤ 0.5

Memo: C31U U47C A65G A69U , reported yeast fitness: ≤ 0.5

Memo: U54G G63C A69C , reported yeast fitness: 0.535

Memo: C29A U35G , reported yeast fitness: ≤ 0.5

Memo: G6A A40U C46A , reported yeast fitness: 0.657

Memo: G10C A14G U26A C49U A65U , reported yeast fitness: ≤ 0.5

Memo: C11A C31U A37C C66U , reported yeast fitness: ≤ 0.5
